# test.description: A CellTox Green Cytotoxicity Assay to monitor cytotoxicity in HEK293 cells - 16 hour (AID 1224888); also: nearly all actives have a fitted effect of over 35% in size
# measurement.parameters: CellTox Green fluorescence; series mostly up to 76.8 µM
Results filed as inconclusive are left out. Activity calls are given as the source filed them. Calls follow the shape of the dose curve; as a rule, active = well fitted activation curve with a large enough effect in the repeat runs; inconclusive = weak or mixed curves; inactive = flat fitted curve, though single readings scatter.
Choose one outcome from this list and give only that: active, inactive

Examples from the recorded data:
C[C@H](N)[C@H](O)c1ccc(O)c(O)c1    active
c1ccc2c(c1)-c1cccc3cccc-2c13    inactive
O=C(Cc1ccccc1)OCCc1ccccc1    inactive
CCCC1CCCCN1 (stereo not drawn)    inactive
CCOc1cccc(C2(N3CCN(c4ccccc4)CC3)CCC(C)CC2)c1 (stereo not drawn)    inactive

// query Call for entry C=C(C)C(=O)OCCCCOC(=O)C(=C)C :
// result inactive

// query Call for entry O=C([O-])c1ccccn1.O=C([O-])c1ccccn1.O=C([O-])c1ccccn1.[Cr+3] :
// result inactive

// query Call for entry C[N+](C)(C)CC1CO1 (stereo not drawn) :
// result inactive

// query Call for entry CCCCC#N :
// result inactive

// query Call for entry O=C1c2ccccc2C(=O)N1SC(Cl)(Cl)Cl :
// result inactive

// query Call for entry c1ccc2c(c1)sc1ccccc12 :
// result inactive

###

# measured.target: Retinoic acid receptor RXR-alpha (Homo sapiens)
# test.description: qHTS assay to identify small molecule agonists of the RXR signaling pathway (AID 1159527); also: nearly all actives have a fitted effect of over 35% in size
# measurement.parameters: HEK293T RXRa-UAS-bla, beta-lactamase ratio, 16 h; series mostly up to 76.8 µM
Records with an inconclusive call do not appear. Activity calls are given as the source filed them. The call rests on the fitted dose curve.
quantity.name: outcome

Some solved cases for reference:
C#C[C@]1(O)CC[C@H]2[C@@H]3CCC4=CC(=O)CCC4=C3C=C[C@@]21CC    inactive
C=CCOCC1CO1 (configuration not stated)    inactive
NC(=O)CF    inactive
CCOC(=O)NC(O)C(Cl)(Cl)Cl (configuration not stated)    inactive
CCCC[N+]1(C)[C@@H]2CC(OC(=O)[C@H](CO)c3ccccc3)C[C@H]1[C@@H]1O[C@@H]12 (some centres not stated)    inactive
C1CCNCC1    inactive

Now for the molecule whose outcome we want.
// query # assay system Retinoic acid receptor RXR-alpha (Homo sapiens): give outcome of Cc1nnc(-c2ccccc2)c(=O)n1N
// result inactive

###

# measured.target: Bile acid receptor (Homo sapiens) (UniProt Q96RI1)
# Sequence (Q96RI1 whole entry, looked up): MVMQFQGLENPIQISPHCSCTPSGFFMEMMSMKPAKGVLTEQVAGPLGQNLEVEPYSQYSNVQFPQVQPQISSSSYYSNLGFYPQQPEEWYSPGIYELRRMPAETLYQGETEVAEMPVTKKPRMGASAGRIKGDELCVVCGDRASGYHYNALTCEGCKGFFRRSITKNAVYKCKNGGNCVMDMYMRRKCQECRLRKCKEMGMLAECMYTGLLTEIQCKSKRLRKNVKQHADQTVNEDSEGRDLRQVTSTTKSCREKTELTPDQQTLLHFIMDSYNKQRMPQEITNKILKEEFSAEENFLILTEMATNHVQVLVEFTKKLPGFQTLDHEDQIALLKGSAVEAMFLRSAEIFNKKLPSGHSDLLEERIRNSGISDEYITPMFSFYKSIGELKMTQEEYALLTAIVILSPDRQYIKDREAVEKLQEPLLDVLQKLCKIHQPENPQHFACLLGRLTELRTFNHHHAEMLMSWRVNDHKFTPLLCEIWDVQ
# test.description: qHTS assay to identify small molecule antagonists of the farnesoid-X-receptor (FXR) signaling pathway (AID 743217)
# measurement.parameters: HEK293T FXR-UAS-bla, beta-lactamase ratio, CDCA-stimulated, 16 h; series mostly up to 62.6 µM
# From the text: U.S. Tox21 Program National Center for Advancing Translational Sciences [NCATS] NIH Chemical Genomics Center [NCGC] U.S. Environmental Protection Agency [EPA] National Institutes of Environmental Health Sciences [NIEHS] National Toxicology Program [NTP] U.S. Food and Drug Administration [FDA] Tox21 Assay Overview: The farnesoid-X-receptor (FXR), a nuclear hormone receptor, is highly expressed in liver, intestine, kidney and adrenal cortex. […]
Inconclusive results are not listed. Calls of active or inactive are those of the source. Calls follow the shape of the dose curve; as a rule, active = well fitted inhibition curve with a large enough effect in the signal ratio in the repeat runs (not every such curve was filed as active); inconclusive = weak or mixed curves, or effect the other way; inactive = no such curve, though single readings can be large or run the other way; the % refers to the signal ratio.
Choose one outcome from this list and give only that: active, inactive

Examples from the recorded data:
O=P(OCC(Br)CBr)(OCC(Br)CBr)OCC(Br)CBr (configuration not stated)    active
CNC(=O)Oc1cccc(N=CN(C)C)c1    inactive
CC(C)c1ccc(OP(=O)(Oc2ccc(C(C)C)cc2)Oc2ccc(C(C)C)cc2)cc1    active

// query Call for entry CCCCC(CC)COC(=O)c1c(Br)c(Br)c(Br)c(Br)c1C(=O)OCC(CC)CCCC (configuration not stated) :
// result inactive

// query Call for entry O=C(N/N=C/c1ccc([N+](=O)[O-])o1)c1cc([N+](=O)[O-])cc([N+](=O)[O-])c1O :
// result inactive

// query Call for entry CCOC(=O)NC(O)C(Cl)(Cl)Cl (configuration not stated) :
// result inactive
